Target: Plasmin (Homo sapiens)
Sequence (P00747 581-810 limits assumed, species assumed): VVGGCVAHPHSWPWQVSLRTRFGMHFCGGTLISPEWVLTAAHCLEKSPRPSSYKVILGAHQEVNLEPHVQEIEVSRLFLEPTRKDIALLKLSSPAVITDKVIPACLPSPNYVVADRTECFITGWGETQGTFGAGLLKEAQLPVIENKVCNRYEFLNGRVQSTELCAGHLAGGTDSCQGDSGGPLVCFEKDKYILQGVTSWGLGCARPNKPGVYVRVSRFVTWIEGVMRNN
Sequence (P00747 97-580 partner limits assumed, species assumed): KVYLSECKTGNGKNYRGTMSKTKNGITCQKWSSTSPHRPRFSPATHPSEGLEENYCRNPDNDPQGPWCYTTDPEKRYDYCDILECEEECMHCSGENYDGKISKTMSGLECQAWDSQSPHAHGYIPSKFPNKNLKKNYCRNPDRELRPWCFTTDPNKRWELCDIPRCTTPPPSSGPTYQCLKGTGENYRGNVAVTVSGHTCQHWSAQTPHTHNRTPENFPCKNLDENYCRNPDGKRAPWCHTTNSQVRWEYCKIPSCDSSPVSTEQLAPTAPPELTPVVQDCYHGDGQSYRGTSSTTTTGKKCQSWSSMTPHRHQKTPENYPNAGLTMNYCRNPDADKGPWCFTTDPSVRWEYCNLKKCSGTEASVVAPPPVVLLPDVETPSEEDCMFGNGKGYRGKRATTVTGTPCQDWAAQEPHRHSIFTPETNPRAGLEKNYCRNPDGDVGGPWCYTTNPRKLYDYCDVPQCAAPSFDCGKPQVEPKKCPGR
Assay: In vitro inhibition of plasmin (Ki according to Dixon)
Assay type: biochemical
Conditions: summary table
pKi: −log10 of the molar value. Where a name gives a salt, the structure may show the parent alone.
quantity-measured: pKi

INSERT INTO results (molecule, quantity_measured, endpoint_result) VALUES
  ('N=C(N)Nc1ccc(CNC(=O)CNC(=O)[C@@H](CO)NS(=O)(=O)Cc2ccccc2)cc1 [WX-508, hydrochloride]', 'pKi', '< 3.70');

* * *

Assay: Oral bioavailability and plasma kinetics in mice (serum concentration)
Type: in vivo, Balb/c mice
Settings: female, Balb/c, mouse, serum, po, 300 mg/kg, 300 mg/kg oral, sample at 60 minutes, read-out: c in the serum 1st analysis
Counter-ions that a name gives are not always drawn.
Values of concentration at 60 min greater than or equal to 4000 ng/mL map to Met; values below map to Not met.

INSERT INTO assay_data (compound, qualitative_label) VALUES
  ('CN(CC(=O)NCc1ccc(NC(=N)N)cc1)C(=O)C(CO)NS(=O)(=O)Cc1ccccc1 (centres unmarked) [WX-538]', 'Not met'),
  ('CCCCS(=O)(=O)NC(CO)C(=O)NCC(=O)NCc1ccc(NC(=N)N)cc1 (centres unmarked) [WX-C300, hydrochloride]', 'Not met'),
  ('N=C(N)Nc1ccc(CNC(=O)CNC(=O)C(CO)NS(=O)(=O)Cc2cccc(Cl)c2)cc1 (centres unmarked) [WX-C318, hydrochloride]', 'Met'),
  ('C[C@H](NC(=O)C(CO)NS(=O)(=O)Cc1ccccc1)C(=O)NCc1ccc(NC(=N)N)cc1 (some centres unmarked) [WX-532, hydrochloride]', 'Met'),
  ('N=C(N)Nc1ccc(CNC(=O)CNC(=O)[C@@H](CO)NS(=O)(=O)Cc2ccccc2)cc1 [WX-508, hydrochloride]', 'Met'),
  ('N=C(N)Nc1ccc(CNC(=O)CNC(=O)C(CO)NS(=O)(=O)Cc2ccc(Cl)cc2)cc1 (centres unmarked) [WX-C340, hydrochloride]', 'Met'),
  ('N=C(N)Nc1ccc(CNC(=O)CNC(=O)C(CO)NS(=O)(=O)Cc2cccc([N+](=O)[O-])c2)cc1 (centres unmarked) [WX-C316, hydrochloride]', 'Met'),
  ('CC1(C)C2CCC1(CS(=O)(=O)NC(CO)C(=O)NCC(=O)NCc1ccc(NC(=N)N)cc1)C(=O)C2 (centres unmarked) [WX-C298, hydrochloride]', 'Met');
